COX-1 ovine enzyme (Ovis aries) IC50 data

Answered cases to consult:
1. COC(=O)CNC(=O)c1cc(C(C)(C)C)c(O)c(C(C)(C)C)c1: > 100 µM
2. COc1ccc2cc(C(C)N(O)C(C)=O)ccc2c1 (stereo not shown): > 100 µM
3. CC(=O)N(O)C(C)c1ccc(CC(C)C)cc1 (stereo not shown): > 100 µM

Turning now to a further record.
Task item: Field: IC50 (COX-1 ovine enzyme (Ovis aries)). Entry: CC(NC(=O)NO)c1ccc(-c2ccccc2)c(F)c1 (stereo not shown)
Reply: > 100 µM

---

Quick reference: inhibition at 100 µM of the listed items.
# MEASUREMENT TARGET: COX-1 ovine enzyme (Ovis aries, UniProt P05979)
# Construct: purchased Abcam ab204698
# Sequence (P05979 25-600): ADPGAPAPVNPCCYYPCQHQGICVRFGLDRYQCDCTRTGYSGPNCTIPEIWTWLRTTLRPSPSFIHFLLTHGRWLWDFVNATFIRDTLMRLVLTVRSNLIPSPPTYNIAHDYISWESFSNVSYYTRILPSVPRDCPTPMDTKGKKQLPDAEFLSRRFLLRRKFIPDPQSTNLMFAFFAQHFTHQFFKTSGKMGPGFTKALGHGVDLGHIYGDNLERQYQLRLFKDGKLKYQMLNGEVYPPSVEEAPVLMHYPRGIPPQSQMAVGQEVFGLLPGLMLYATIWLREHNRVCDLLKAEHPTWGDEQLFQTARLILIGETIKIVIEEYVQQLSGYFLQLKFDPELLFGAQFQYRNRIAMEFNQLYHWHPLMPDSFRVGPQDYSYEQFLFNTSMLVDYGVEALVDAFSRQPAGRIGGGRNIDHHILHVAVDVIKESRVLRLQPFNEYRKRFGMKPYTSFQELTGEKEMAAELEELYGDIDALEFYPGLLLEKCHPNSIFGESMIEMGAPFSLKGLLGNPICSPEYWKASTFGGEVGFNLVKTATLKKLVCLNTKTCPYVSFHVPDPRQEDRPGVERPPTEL
# METHOD NOTES: Fluorometric COX-1 inhibitor screening kit
# Type: biochemical
# RECORDED CONDITIONS: at 100 µM concentration

// known answers, use as guide
1. COc1ccc2cc(C(C)N(O)C(C)=O)ccc2c1 (stereo not shown): < 50%
2. O=C(NO)NCc1ccccc1Nc1c(Cl)cccc1Cl: < 50%
3. COC(=O)CNC(=O)c1cc(C(C)(C)C)c(O)c(C(C)(C)C)c1: < 50%

Please examine the following record next.
Task item: Reported inhibition at 100 µM, compound CC(=O)N(O)C(C)c1ccc(CC(C)C)cc1 (stereo not shown) : ____
Reply: < 50%
